Reported values of T/C for individual entries
Test system: P388 leukemia ip, CD2F1 mice, survival T/C
Experiment: NCI In Vivo Anticancer Drug Screen. Data for tumor model P388 Leukemia (intraperitoneal) in CD2F1 (CDF1) mice
Details: endpoint: median survival time; dose: 100.0 mg/kg/injection; schedule: Q01DX001 (ip); vehicle: saline with Tween-80; higher = longer survival
Inconclusive results and toxic doses are left out.

COC(=O)C(=O)c1cc(=O)[nH]c(NC(C)=O)n1 = 107 % of control
O=C(NC(=S)c1ccc(Br)cc1)NS(=O)(=O)c1ccccc1 = 107 % of control
O=C(Cc1ccccc1)NCCN1CCNCC1 = 105 % of control
OCC1c2ccc(Cl)cc2Nc2ccc(Cl)cc21 (centres undefined) = 104 % of control
CC(=O)OCC1OC(n2ccc3c(=O)[nH]c(=O)[nH]c32)C(OC(C)=O)C(OC(C)=O)C1OC(C)=O (centres undefined) = 104 % of control
Cc1nc(N)c(C#N)c(-c2ccccc2)c1-c1ccccc1 = 92 % of control
CSCc1cc(C)ccc1NC(C)=O = 99 % of control
O=S1(=O)CC(Sc2ccccc2)C1 = 102 % of control

Task: If you can, please state the reported T/C value of `CCN(CC)C1=C(C)C(=O)[C@]2([Si](C)(C)C)[C@](OC)(c3ccc(C(F)(F)F)cc3)[C@]12[Si](C)(C)C` .
Output: 101 % of control

Task: If you can, please state the reported T/C value of O=C1CSC(c2c(O)ccc3ccccc23)N1CCN1C(=O)CSC1c1c(O)ccc2ccccc12 (centres undefined) .
Output: 97 % of control

Task: If you can, please state the reported T/C value of `CC(=O)Nc1nc([N+](=O)[O-])c(C(C)C)s1` .
Output: 98 % of control
